Provide the reported %Inh of each item.
- Test system: MLK3;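 note: KINOMEscan kinase panel screen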
- test.conditions: concentration: 1 μM, replicates: in singlicate; n = 1
Provide the reading as a plain figure in %.

Annotate the compound `c1ccc(-c2n[nH]cc2Nc2ccnc3ccccc23)nc1` with its measured %Inh.
0

Annotate the compound O=C(NC1CCN(c2ccnc(Nc3ccc(F)cc3)n2)C1)c1cc2ccccc2s1 (stereo not shown) with its measured %Inh.
29

Annotate the compound `CN(c1ccc(NC(=O)Nc2cc(C(F)(F)F)ccc2F)cc1)c1ccnc(Nc2ccc(S(N)(=O)=O)cc2)n1` with its measured %Inh.
66

Annotate the compound Cl.Cl.NCC(C(=O)Nc1cc(Br)c(-c2ccnc3[nH]ccc23)s1)c1ccccc1 (stereo not shown) with its measured %Inh.
11

Annotate the compound `O=C(Nc1cccc(Oc2ccc3nc(NC(=O)C4CC4)cn3n2)c1)c1ccccc1C(F)(F)F` with its measured %Inh.
0

Annotate the compound Cl.Cl.NCC(NC(=O)c1cc(-c2ccccc2)c(-c2ccnc3[nH]ccc23)s1)c1ccccc1 (stereo not shown) with its measured %Inh.
11

Annotate the compound `Cn1cc(-c2[nH]c3cc(NC(=O)[C@H](N)C4CCCCC4)cc4c3c2C=NNC4=O)cn1` with its measured %Inh.
83

Annotate the compound `CN(C)S(=O)(=O)c1cc(-c2ccc3nccc(-c4cccc(S(N)(=O)=O)c4)c3c2)cnc1N` with its measured %Inh.
0

Annotate the compound `COc1cc(Nc2nccc(-c3c(-c4cccc(NC(=O)c5c(F)cccc5F)c4)nn4ncccc34)n2)cc(OC)c1OC` with its measured %Inh.
50

Annotate the compound Cc1ccc(C)c(NC(=O)NC2CCN(c3ccnc(Nc4ccc(F)cc4)n3)C2)c1 (stereo not shown) with its measured %Inh.
0

Annotate the compound `Cl.c1ccc(-c2ccc3c(Nc4ccc5[nH]ccc5c4)ccnc3c2)nc1` with its measured %Inh.
0

Annotate the compound `Cc1ccc(C(=O)Nc2ccc(Nc3ccnc4cc(-c5nccs5)ccc34)cc2O)cc1.Cl` with its measured %Inh.
0

Annotate the compound `Oc1cc(Nc2ccnc3cc(I)ccc23)ccc1F` with its measured %Inh.
0

Annotate the compound `CC(=O)Nc1nc2cnc(Nc3cc(NC(=O)c4cccc(C5(C#N)CC5)c4Cl)ccc3C)nc2s1` with its measured %Inh.
0

Annotate the compound `Cc1ccc(C(=O)N2CC[C@@H](O)C2)cc1-n1c(C)cc(OCc2ccc(F)cc2F)c(Br)c1=O` with its measured %Inh.
0

Annotate the compound `Nc1ncnc2c1nc(-c1ccccc1)n2-c1ccccc1` with its measured %Inh.
0

Annotate the compound `FC(F)(F)c1ccc(/C=C/c2cncnc2Nc2ccc3[nH]c(Cc4ccccc4)nc3c2)cc1` with its measured %Inh.
1

Annotate the compound `CC(=O)N1CCN(c2ccc(Nc3nccc(-c4sc(C(C)C)nc4-c4cccc(NS(=O)(=O)c5cccc(Cl)c5)c4)n3)cn2)CC1` with its measured %Inh.
46

Annotate the compound `COc1cccc(C2=C(Nc3ccc(Cl)c(C(=O)O)c3)C(=O)NC2=O)c1` with its measured %Inh.
0

Annotate the compound `Clc1ccc(-c2nn3ncccc3c2-c2ccnc(Nc3ccc4c(c3)OCCO4)n2)cc1` with its measured %Inh.
0

Annotate the compound `CNC(=O)c1ccccc1Nc1nc(Nc2ccc(N3CCOCC3)cc2)ncc1Cl.Cl` with its measured %Inh.
86

Annotate the compound COc1cc(Nc2nccc(N3CCC(NC(=O)c4cc5ccccc5s4)C3)n2)cc(OC)c1OC (stereo not shown) with its measured %Inh.
53
